system: AGS; test: CellTiter-Glo Reagent cancer cell line proliferation assay, AGS; assay type: cell-based, human; settings: Homo sapiens, 24 h, KRAS(G12D) heterozygous
observable: IC50

molecule: C#Cc1c(F)ccc2cc(O)cc(-c3nc(OC)c4c(N5CCCOCC5)nc(OCC5(CN6CCN(CC7CCN(c8ccc9c(c8)CN(C8CCC(=O)NC8=O)C9=O)CC7)CC6)CC5)nc4c3F)c12 (stereo not drawn) [Compound 127]
meas-value: < 100 nM

molecule: C#Cc1c(F)ccc2cc(O)cc(-c3nc(OC)c4c(N5CC6CCC(C5)N6C(=O)CC(C)C#N)nc(OCC5(CN6CCN(CC7CCN(c8ccc9c(N%10CCC(=O)NC%10=O)nn(C)c9c8)CC7)CC6)CC5)nc4c3F)c12 (stereo not drawn) [Compound 152]
meas-value: < 100 nM

molecule: N#CCCC(=O)N1C2CCC1CN(c1nc(OCC3(CN4CCN(CC5CCN(c6ccc7c(c6)CN(C6CCC(=O)NC6=O)C7=O)CC5)CC4)CC3)nc3c(F)c(-c4cc(N)cc(Cl)c4C(F)(F)F)c(Cl)cc13)C2 (stereo not drawn) [Compound 153]
meas-value: < 100 nM

molecule: C#Cc1c(F)ccc2cc(O)cc(-c3ncc4c(N5CC6CCC(C5)N6C(=O)Cn5cc(COCCOCCOCCNc6ccc7c(c6)CN(C6CCC(=O)NC6=O)C7=O)nn5)nc(OCC56CCCN5C[C@@H](F)C6)nc4c3F)c12 (stereo partly drawn) [Compound 141]
meas-value: < 100 nM

molecule: CN1C[C@H](N2CCC(C(=O)NCCOCCOc3ccc4c(c3)C(=O)N(C3CCC(=O)NC3=O)C4=O)CC2)C[C@@H]1COc1nc(N2CC3CCC(C2)N3)c2cnc(-c3cc(O)cc4ccccc34)c(F)c2n1 (stereo partly drawn) [Compound 24]
meas-value: > 1000 nM

Sure, the documented IC50 for C#Cc1c(F)ccc2cc(O)cc(-c3nc(OC)c4c(N5CC6CCC(C5)N6C(=O)CC(C)C#N)nc(OCC5(CN6CCC(CN7CCC(c8ccc9c(c8)CN(C8CCC(=O)NC8=O)C9=O)C(F)(F)C7)CC6)CC5)nc4c3F)c12 (stereo not drawn) [Compound 161] is < 100 nM

Sure, the documented IC50 for C#Cc1c(F)ccc2cc(O)cc(-c3ncc4c(N5CC6CCC(C5)N6C(=O)[C@@H](C)C#N)nc(OCC5(CN6CCN(CC7CCN(c8ccc9c(c8)CN(C8CCC(=O)NC8=O)C9=O)CC7)CC6)CC5)nc4c3F)c12 (stereo partly drawn) [Compound 109] is 100 to 1000 nM

Sure, the documented IC50 for C#Cc1c(F)ccc2cc(O)cc(-c3ncc4c(N5CC6CCC(C5)N6C(=O)NC(C)(C)C)nc(OCC5(CN6CCN(CC7CCN(c8ccc9c(c8)CN(C8CCC(=O)NC8=O)C9=O)CC7)CC6)CC5)nc4c3F)c12 (stereo not drawn) [Compound 118] is 100 to 1000 nM

Sure, the documented IC50 for C#Cc1c(F)ccc2cc(O)cc(-c3nc(OC)c4c(N5CC6CCC(C5)N6C(=O)C(C#N)CC#N)nc(OCC5(CN6CCN(CC7CCN(c8ccc9c(c8)CN(C8CCC(=O)NC8=O)C9=O)CC7)CC6)CC5)nc4c3F)c12 (stereo not drawn) [Compound 126] is < 100 nM
